- Tested on: Human adenovirus 5
- assay procedure: Antiviral activity against Human adenovirus 5 Adenoid 75 infected in A549 cells assessed as reduction in virus titer preincubated for 24 hrs followed by viral infection and measured after 72 hrs by microscopic analysis
- Format: functional, organism-based
Calls of active or inactive are those of the source. The calls are words filed in the database; no cut-off is given here.
measured metric: Activity

C=C(C)[C@@H]1CC[C@]2(COC(=O)c3cccc(C(=O)N4CCSCC4)c3)CC[C@]3(C)[C@H](CC[C@@H]4[C@@]5(C)CC[C@H](O)C(C)(C)[C@@H]5CC[C@]43C)C12 (single isomer, unassigned)    inactive
C=C(C)[C@@H]1CC[C@]2(COC(=O)/C=C(\C)C(=O)N3CCOCC3)CC[C@]3(C)[C@H](CC[C@@H]4[C@@]5(C)CC[C@H](O)C(C)(C)[C@@H]5CC[C@]43C)[C@@H]12    inactive
C#CCNC(=O)CCCCCCCCCC(=O)OC[C@]12CC[C@@H](C(=C)C)[C@@H]1[C@H]1CC[C@@H]3[C@@]4(C)CC[C@H](O)C(C)(C)[C@@H]4CC[C@@]3(C)[C@]1(C)CC2    inactive

Reference source for all entries: ChEMBL document CHEMBL4831514
